The reported measurements were obtained from PubChem BioAssay (EPA / NIEHS).

test: ATG_NRF2_ARE_CIS: Attagene CIS-FACTORIAL HepG2 Assay for human Nuclear Factor Erythroid 2 Related Factor 2 (NFR2) response to Antioxidant Response Elements (ARE) (AID 2282992); details: HepG2 Attagene ARE/NRF2 reporter, transcription factor activity; actives raise or lower the signal
Activity calls are given as the source filed them. How the source made its calls: active means hit-call score of the fitted dose curve at least 0.9, where 1 is the maximum; inactive means score below 0.9.
Classes to choose from: active, inactive

Ask: Write down the call the test reported for this compound. Item: `O=C(F)C(F)(F)C(F)(F)C(F)(F)C(F)F`
Reply: inactive

Ask: Similarly, `Brc1ccc(Oc2ccc(Br)cc2Br)cc1` ?
Reply: inactive

Ask: Similarly, `Oc1cc2ccccc2cc1O` ?
Reply: active

Ask: Similarly, `CCCCCCCCCCCC[N+](C)(C)CCCCCCCCCCCC` ?
Reply: active

Ask: Similarly, `CCc1ccccc1O` ?
Reply: active

Ask: Similarly, `CCc1cccc(CC)c1NC(=O)C(=O)O` ?
Reply: inactive

Ask: Similarly, `Cc1cc(Cc2cc(C)cc(C(C)(C)C)c2O)c(O)c(C(C)(C)C)c1` ?
Reply: inactive

Ask: Similarly, `Cc1ccc2ccc3ccc(C)cc3c2c1` ?
Reply: active

Ask: Similarly, `COc1ccccc1NC(=O)c1cc2ccccc2cc1O` ?
Reply: inactive

Ask: Similarly, `CCC(=O)O` ?
Reply: inactive

Ask: Similarly, `O=C1c2ccccc2C(=O)c2c(O)c(O)cc(O)c21` ?
Reply: active

Ask: Similarly, `Cc1ccc(N=Nc2c(O)ccc3ccccc23)c(C)c1` ?
Reply: active

Ask: Similarly, `CCc1cccc(CC)c1N(COC)C(=O)CS(=O)(=O)O` ?
Reply: inactive

Ask: Similarly, `CCOC(C)=O` ?
Reply: inactive

====

Test: ATG_AP_2_CIS: Attagene CIS-FACTORIAL HepG2 Assay for human Activator Protein 2 (AP-2) (AID 2282932)
Conditions: HepG2 AP-2 cis-reporter, Attagene transcription factor profiling; actives raise or lower the signal
Experimental: ATG_CIS is a cell-based, multiplexed-readout assay that uses HepG2, a human liver cell line, with measurements taken at 24 hours after chemical dosing in a 24-well plate.ATG_AP_2_CIS is one of 52 assay component(s) measured or calculated from the ATG_CIS assay. […] This assay endpoint, ATG_AP_2_CIS, was analyzed with bidirectional fitting relative to DMSO as the negative control and baseline of activity. […]
Active and inactive are the calls of the source. Rule for the calls: active = hit-call score of the fitted dose curve at least 0.9, where 1 is the maximum; inactive = score below 0.9.
observation type: AC50

# count of solved cases: 6
CCCCc1oc2ccccc2c1C(=O)c1cc(I)c(OCCN(CC)CC)c(I)c1 = 130 µM (active)
CC1COCc2cc3c(cc21)C(C)(C)C(C)C3(C)C (configuration not stated) = 173 µM (active)
CCCCCCCCCCCCCCCCCC[N+](C)(C)Cc1ccccc1 = 88.1 µM (active)
CCOC(=O)c1nc(C(Cl)(Cl)Cl)n(-c2ccc(Cl)cc2Cl)n1 = 25.3 µM (active)
OCCN1CN(CCO)CN(CCO)C1 = 143 µM (active)
CCCCCCOC(=O)c1ccc(O)cc1 = 54.9 µM (active)

Kindly review the next compound as well.
Ask: Entry `CCCCCCCCCCCCCC[n+]1ccccc1` has what AC50?
Reply: 19.8 µM (active)

====

experiment: CCTE_Shafer_MEA_dev_interburst_interval_mean: CCTE's Neural Network Formation Assay for Mean Interburst Interval, Shafer Lab (AID 2284046);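 further: well-mean interburst interval of bursting electrodes as AUC over four recording days; curve fitted for decrease in interburst interval relative to DMSO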
Calls of active or inactive are those of the source. How the source made its calls: active means hit-call score of the fitted dose curve at least 0.9, where 1 is the maximum; inactive means score below 0.9.
Classes to choose from: 1 (active), 0 (inactive)

Here's what some known entries look like.
O=C(O)C(F)(F)OC(F)(F)C(F)(F)OC(F)(F)C(F)(F)OC(F)(F)C(F)(F)C(F)(F)C(F)(F)F = 0
O=CC(F)(F)C(F)(F)C(F)(F)F = 0
CN(Cc1cnc2nc(N)nc(N)c2n1)c1ccc(C(=O)N[C@@H](CCC(=O)O)C(=O)O)cc1 = 1
COC(=O)C(F)(F)C(F)(F)C(F)(F)F = 0

Ask: Write down the call the test reported for this molecule. Item: `COC(=O)C(F)(F)C(F)(F)C(F)(F)C(F)(F)C(F)(F)F`
Reply: 0

Ask: Similarly, `O=C(OC(=O)C(F)(F)C(F)(F)F)C(F)(F)C(F)(F)F` ?
Reply: 0

Ask: Similarly, `O=P(O)(O)CCC(F)(F)C(F)(F)C(F)(F)C(F)(F)C(F)(F)C(F)(F)C(F)(F)C(F)(F)F` ?
Reply: 1

Ask: Similarly, `O=C(C=C(O)C(F)(F)F)C(F)(F)F` ?
Reply: 0

Ask: Similarly, `O=C(O)CCC(F)(F)C(F)(F)C(F)(F)C(F)(F)C(F)(F)F` ?
Reply: 0

Ask: Similarly, `FC(F)=C(F)C(F)(F)C(F)(F)C(F)(F)C(F)F` ?
Reply: 0

Ask: Similarly, `O=C(CC(=O)C(F)(F)C(F)(F)C(F)(F)F)c1cccs1` ?
Reply: 1

Ask: Similarly, `FCOC(C(F)(F)F)C(F)(F)F` ?
Reply: 0

Ask: Similarly, `O=C1NS(=O)(=O)c2ccccc21` ?
Reply: 0

Ask: Similarly, `NC(C(F)(F)F)C(F)(F)F` ?
Reply: 0

====

assay: TOX21_p53_BLA_p5_viability: Viability Assessment in the Tox21 HCT-116 p53 Agonism Beta-lactamase Assay, Phase 5 (AID 2283600)
Inconclusive results are not listed. Activity calls are given as the source filed them. Rule for the calls: active = hit-call score of the fitted dose curve at least 0.9, where 1 is the maximum; inconclusive = response in the unintended direction; inactive = score below 0.9.
Classes to choose from: T = active, F = inactive

Here's what some known entries look like.
CN(C)CCOC(c1ccccc1)c1ccccc1 = F
COC(=O)CC(C(C)=O)C(=O)OC (configuration not stated) = F
C=CC(=O)OCC(CO)(COCC(COC(=O)C=C)(COC(=O)C=C)COC(=O)C=C)COC(=O)C=C = T

Ask: Write down the call the test reported for this molecule. Item: `Nc1ccc(O)c(C(=O)O)c1`
Reply: F

Ask: Similarly, CCC1CO1 (configuration not stated) ?
Reply: F

Ask: Similarly, `CCC(=O)C=Cc1ccc(OC)cc1` ?
Reply: F

Ask: Similarly, c1ccc(CNc2ncnc3c2ncn3C2CCCCO2)cc1 (configuration not stated) ?
Reply: F

Ask: Similarly, `O=c1cc(-c2ccccc2)oc2ccc3ccccc3c12` ?
Reply: F

Ask: Similarly, `O=C(Nc1ccc(Cl)c(Cl)c1)c1cc(Cl)cc(Cl)c1O` ?
Reply: F

Ask: Similarly, `Cc1ccc(S(=O)(=O)O)cc1` ?
Reply: F

Ask: Similarly, CCCCCCCCCC=CCC1CC(=O)OC1=O (configuration not stated) ?
Reply: F

Ask: Similarly, `O=C(Nc1cccc([N+](=O)[O-])c1)c1cc2ccccc2cc1O` ?
Reply: F

====

read-out: Collagen I, COL1A1 (gene 1277); test: BSK_MyoF_CollagenI: BioMAP Diversity Plus: MyoF Assay for Collagen I Biomarker Activity (AID 2284238); conditions: primary human lung fibroblasts
The source made the active and inactive calls. Rule for the calls: active = hit-call score of the fitted dose curve at least 0.9, where 1 is the maximum; inactive = score below 0.9.
observation type: AC50

# count of solved cases: 8
CCOC(=O)CN[C@@H](C(=O)N1CC[C@H]1C(=O)NCc1ccc(/C(N)=N/O)cc1)C1CCCCC1 = inactive
O=C1c2ccc(O)c(O)c2C(=O)c2c(O)ccc(O)c21 = inactive
COC1=CC(=O)C[C@@H](C)[C@]12Oc1c(Cl)c(OC)cc(OC)c1C2=O = 20 µM (active)
OCC(F)(F)C(F)(F)C(F)(F)C(F)(F)C(F)(F)C(F)(F)C(F)(F)C(F)(F)C(F)(F)C(F)(F)C(F)(F)F = inactive
CCCCC(CC)C(=O)OCCOCCOCCOCCOC(=O)C(CC)CCCC (stereo not given) = inactive
O=C(NO)c1ccccc1 = inactive
Cc1ccc(N=Nc2c(O)ccc3ccccc23)c(C)c1 = inactive
CCCCCc1ccc(O)cc1 = 24 µM (active)

Ask: Entry `CN(Cc1cnc2nc(N)nc(N)c2n1)c1ccc(C(=O)N[C@@H](CCC(=O)O)C(=O)O)cc1` has what AC50?
Reply: inactive

Ask: Similarly, `O=C1OC2(c3ccccc31)c1cc(I)c(O)c(I)c1Oc1c2cc(I)c(O)c1I` ?
Reply: 5.89 µM (active)

====

read-out: Broad substrate specificity ATP-binding cassette transporter ABCG2 (Homo sapiens); assay: LTEA_HepaRG_ABCG2: Life Technologies and Expression Analysis (LTEA) Assay for ABC Transporter (ABCG2) using HepaRG (AID 2283465); settings: mRNA level, 48 h; actives raise or lower the signal
Active and inactive are the calls of the source. How the source made its calls: active means hit-call score of the fitted dose curve at least 0.9, where 1 is the maximum; inactive means score below 0.9.
Classes to choose from: active, inactive

O=C(c1ccccc1)c1ccccc1 = inactive

Ask: Write down the call the test reported for this molecule. Item: `CC(=O)Nc1ccc(O)cc1`
Reply: inactive

Ask: Similarly, `CN(C)CCOC(c1ccccc1)c1ccccc1` ?
Reply: inactive

Ask: Similarly, CCCCC(CC)C(=O)O (stereo unspecified) ?
Reply: inactive

Ask: Similarly, `CS(=O)(=O)c1ccc([C@@H](CC2CCCC2)C(=O)Nc2cnccn2)cc1Cl` ?
Reply: active

Ask: Similarly, `N=C(N)c1ccc(OCCCCCOc2ccc(C(=N)N)cc2)cc1` ?
Reply: active

Ask: Similarly, `CCCCCCCCCCCCCCC` ?
Reply: inactive
